assay: amyloid nucleation score (Sup35N fusion, yeast selection) (log enrichment); library NNK1; higher = more nucleation; inactive = no reads after selection;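 further: zero at mode of non-aggregating sequences after 7 days selection at 30°C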
Returns the class for an entry based on its amyloid nucleation score. Class ranges: range 1: < 0.01; range 2: ≥ 0.01 and < 0.5; range 3: ≥ 0.5

Worked examples, 3 substances total:
- substance: "DRATGISEAVEWHGRWVGKN"
  label: "range 1"
- substance: "SQCSSLIHAIEMDRFVF"
  label: "range 2"
- substance: "SPFMGCLYNLLDLDDGS"
  label: "range 1"

Prompt line: Lab note: which band did "RRRHWVSSAGGKRRHLVFCA" land in?
Response line: range 3

Prompt line: Kindly state the category for this substance: "GPVVLRTGLLVRFTYHIGRE"
Response line: range 3

Prompt line: Category of "GPILDSNKASIPIV" , please.
Response line: range 1

Prompt line: Which bin, given its amyloid nucleation score, does "GEKWMLEVASFICKSGFRVC" occupy?
Response line: range 1

Prompt line: Pick a category. Item: "CDNLRCRGLGDWCAWQPLTS"
Response line: range 2

Prompt line: Textbook exercise: identify the category of the substance given here, "YKMCFSKVYESTEPMMCTGV" , according to its measured value.
Response line: range 1

Prompt line: For the record "DCCKLTDQQWDVIHAGIWGG" , report the class its amyloid nucleation score corresponds to.
Response line: range 3

Prompt line: Place this substance in its band: "IGRMIRVCYVVCYEVDMTTS"
Response line: range 3

Prompt line: Sort into band: "RELNSRPVFYLLGMDQSIGA"
Response line: range 3

Prompt line: // return the class label for "TLSKVICVSPTVGMGLSSER"
Response line: range 3

Prompt line: Dear colleague, I would appreciate it if you could identify the bin for "NIGNVMRSCSKVYSLSLKQL" and reply at your convenience.
Response line: range 3

Prompt line: Using the reported amyloid nucleation score, which band applies to "AGIKIGKEKGCHNYRFWWTV" ?
Response line: range 2

Prompt line: Place this substance in its band: "NCDKMVNMLPLRFSDIALSM"
Response line: range 1

Prompt line: Any idea which band "TQDIILDNSHDATHQHTRRA" is in?
Response line: range 1

Prompt line: // bin(item) where item = "GSSGAWVCSGCL"
Response line: range 1

Prompt line: Field: class (amyloid nucleation score) — entry: "AESSPSVG"
Response line: range 2

Prompt line: For this substance, which bin applies? "EFRKEG"
Response line: range 3

Prompt line: State the band of "RQSQRWYFLLCGYYKAFFRR"
Response line: range 3
